# Target of assay: furin from the U-251 MG secretome (Homo sapiens)
# Construct: physiological furin secreted from U-251 MG cells; endogenous in cells; conditioned medium (secretome) concentrated 10x
# Sequence (P09958 108-715 limits assumed): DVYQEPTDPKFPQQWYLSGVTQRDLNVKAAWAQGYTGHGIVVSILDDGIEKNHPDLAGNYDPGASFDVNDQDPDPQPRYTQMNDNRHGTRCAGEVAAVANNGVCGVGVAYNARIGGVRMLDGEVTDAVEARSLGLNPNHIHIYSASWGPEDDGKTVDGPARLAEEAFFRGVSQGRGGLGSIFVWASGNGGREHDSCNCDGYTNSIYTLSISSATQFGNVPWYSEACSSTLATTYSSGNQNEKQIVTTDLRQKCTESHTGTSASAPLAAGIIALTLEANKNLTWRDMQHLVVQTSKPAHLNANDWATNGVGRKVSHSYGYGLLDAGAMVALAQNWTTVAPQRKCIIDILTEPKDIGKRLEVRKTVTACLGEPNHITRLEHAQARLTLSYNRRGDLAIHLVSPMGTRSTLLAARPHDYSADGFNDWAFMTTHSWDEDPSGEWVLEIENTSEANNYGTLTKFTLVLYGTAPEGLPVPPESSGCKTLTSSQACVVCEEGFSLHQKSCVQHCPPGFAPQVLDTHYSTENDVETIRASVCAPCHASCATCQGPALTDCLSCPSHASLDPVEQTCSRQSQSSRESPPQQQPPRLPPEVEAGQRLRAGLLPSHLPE
# Assay notes: Furin inhibition assay in coadjuvants with CMK
# Run conditions: CMK alone, read-out: IC50 for CMK alone, physiological furin
Residues, ends and D or L forms follow the SMILES beside them. *: point of attachment. Decanoyl = CCCCCCCCCC(=O)*; CH2Cl = ClC*
Measured property: pIC50
pIC50 here: minus log base 10 of the concentration, concentration in moles per litre.

# return pIC50 for CCCCCCCCCC(=O)N[C@@H](CCCNC(=N)N)C(=O)N[C@H](C(=O)N[C@@H](CCCCN)C(=O)N[C@@H](CCCNC(=N)N)C(=O)CCl)C(C)C [CMK] (Decanoyl-RVKR-CH2Cl) , test system: furin from the U-251 MG secretome (Homo sapiens) 5.38

All values here come from paper PMC8911046.
